biological target: Alkaline phosphatase, placental type (Homo sapiens); assay: Inhibition of FLAG-tagged PLAP (unknown origin) expressed in African green monkey COS1 cells after 30 mins by chemiluminescence assay
Sequence (P05187 whole entry): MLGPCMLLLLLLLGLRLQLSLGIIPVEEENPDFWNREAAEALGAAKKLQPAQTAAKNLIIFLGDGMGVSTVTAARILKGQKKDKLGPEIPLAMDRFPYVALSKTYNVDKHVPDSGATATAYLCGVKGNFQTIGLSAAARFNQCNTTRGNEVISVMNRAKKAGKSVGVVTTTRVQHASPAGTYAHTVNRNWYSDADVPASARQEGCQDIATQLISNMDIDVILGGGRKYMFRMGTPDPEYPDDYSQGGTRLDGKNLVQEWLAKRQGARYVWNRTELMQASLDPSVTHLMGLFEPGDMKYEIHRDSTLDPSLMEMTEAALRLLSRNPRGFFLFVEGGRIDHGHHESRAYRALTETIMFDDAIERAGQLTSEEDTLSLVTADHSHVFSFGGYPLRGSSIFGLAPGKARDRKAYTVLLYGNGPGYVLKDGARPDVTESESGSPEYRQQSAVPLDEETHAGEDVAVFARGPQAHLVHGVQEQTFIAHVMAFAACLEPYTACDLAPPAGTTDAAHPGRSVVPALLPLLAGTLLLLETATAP
pIC50: −log10 of the molar value.
Listing of recorded pIC50 by entry.
Measurement name: pIC50

>  <Smiles>
O=C(NCCc1ccc2c(c1)OCO2)NS(=O)(=O)c1ccc2[nH]c(=O)oc2c1

>  <Subject of test>
Alkaline phosphatase, placental type (Homo sapiens)

>  <Measured value>
< 4.00

$$$$
>  <Smiles>
Cc1ccc(C)c(NC(=O)CNS(=O)(=O)c2ccc3[nH]c(=O)oc3c2)c1

>  <Subject of test>
Alkaline phosphatase, placental type (Homo sapiens)

>  <Measured value>
< 4.00

$$$$
>  <Smiles>
O=C(Nc1ccc2c(c1)OCO2)NS(=O)(=O)c1ccc2[nH]c(=O)oc2c1

>  <Subject of test>
Alkaline phosphatase, placental type (Homo sapiens)

>  <Measured value>
< 4.00

$$$$
>  <Smiles>
O=C(CCCNS(=O)(=O)c1ccc2[nH]c(=O)oc2c1)NCc1ccc2c(c1)OCO2

>  <Subject of test>
Alkaline phosphatase, placental type (Homo sapiens)

>  <Measured value>
< 4.00

$$$$
>  <Smiles>
COc1ccc(NC(=O)NS(=O)(=O)c2ccc3[nH]c(=O)oc3c2)cc1OC

>  <Subject of test>
Alkaline phosphatase, placental type (Homo sapiens)

>  <Measured value>
< 4.00

$$$$
>  <Smiles>
Cc1ccc(C)c(NC(=O)NS(=O)(=O)c2ccc3[nH]c(=O)oc3c2)c1

>  <Subject of test>
Alkaline phosphatase, placental type (Homo sapiens)

>  <Measured value>
< 4.00

$$$$
>  <Smiles>
O=C(CCNS(=O)(=O)c1ccc2[nH]c(=O)oc2c1)NCCCc1ccc2c(c1)OCO2

>  <Subject of test>
Alkaline phosphatase, placental type (Homo sapiens)

>  <Measured value>
< 4.00

$$$$
>  <Smiles>
O=C(CCNS(=O)(=O)c1ccc2[nH]c(=O)oc2c1)Nc1ccc2c(c1)OCO2

>  <Subject of test>
Alkaline phosphatase, placental type (Homo sapiens)

>  <Measured value>
< 4.00

$$$$
>  <Smiles>
O=C(CCNS(=O)(=O)c1ccc2[nH]c(=O)oc2c1)NCc1ccc2c(c1)OCO2

>  <Subject of test>
Alkaline phosphatase, placental type (Homo sapiens)

>  <Measured value>
< 4.00

$$$$
>  <Smiles>
N#Cc1cccc(NC(=O)NS(=O)(=O)c2ccc3[nH]c(=O)oc3c2)c1

>  <Subject of test>
Alkaline phosphatase, placental type (Homo sapiens)

>  <Measured value>
< 4.00

$$$$
>  <Smiles>
O=C(CNS(=O)(=O)c1ccc2[nH]c(=O)oc2c1)NCc1ccc2c(c1)OCO2

>  <Subject of test>
Alkaline phosphatase, placental type (Homo sapiens)

>  <Measured value>
< 4.00

$$$$
>  <Smiles>
O=C(CNS(=O)(=O)c1ccc2[nH]c(=O)oc2c1)NCCc1ccc2c(c1)OCO2

>  <Subject of test>
Alkaline phosphatase, placental type (Homo sapiens)

>  <Measured value>
< 4.00

$$$$
>  <Smiles>
COc1ccc(CNC(=O)NS(=O)(=O)c2ccc3[nH]c(=O)oc3c2)c(OC)c1

>  <Subject of test>
Alkaline phosphatase, placental type (Homo sapiens)

>  <Measured value>
< 4.00

$$$$
>  <Smiles>
N#Cc1cccc(NC(=O)CCNS(=O)(=O)c2ccc3nc(O)oc3c2)c1

>  <Subject of test>
Alkaline phosphatase, placental type (Homo sapiens)

>  <Measured value>
< 4.00

$$$$
>  <Smiles>
COc1cccc(CNC(=O)NS(=O)(=O)c2ccc3[nH]c(=O)oc3c2)c1

>  <Subject of test>
Alkaline phosphatase, placental type (Homo sapiens)

>  <Measured value>
< 4.00

$$$$
>  <Smiles>
N#Cc1ccc(NC(=O)NS(=O)(=O)c2ccc3[nH]c(=O)oc3c2)cc1

>  <Subject of test>
Alkaline phosphatase, placental type (Homo sapiens)

>  <Measured value>
< 4.00

$$$$
>  <Smiles>
O=C(CCNS(=O)(=O)c1ccc2[nH]c(=O)oc2c1)NCCc1ccc2c(c1)OCO2

>  <Subject of test>
Alkaline phosphatase, placental type (Homo sapiens)

>  <Measured value>
< 4.00

$$$$
